Consider the following compounds; for each one, report its melting point.

Here is how some compounds turned out for melting point.
STRUCTURE AS SMILES	melting point
COc1ccc(-n2nnnc2C(F)(F)F)cc1CN1C[C@@H]2CN(S(=O)(=O)C(C)C)CCN2[C@H](C(c2ccccc2)c2ccccc2)C1.Cl.Cl	150 to 155 °C
COc1ccc(-n2nnnc2C(F)(F)F)cc1CN1C[C@@H]2CN(C(=O)OC(C)C)CCN2[C@H](C(c2ccccc2)c2ccccc2)C1.Cl.Cl	147 to 150 °C
CCCS(=O)(=O)N1CCN2[C@H](CN(Cc3cc(-n4nnnc4C(F)(F)F)ccc3OC)C[C@H]2C(c2ccccc2)c2ccccc2)C1.Cl.Cl	146 to 165 °C
COc1ccncc1CN1C[C@@H]2CN(C(C)=O)CCN2[C@H](C(c2ccccc2)c2ccccc2)C1.Cl.Cl.Cl	205 to 210 °C
CCOc1ccc(-n2nnnc2C(F)(F)F)cc1CN1C[C@@H]2CN(C(C)=O)CCN2[C@H](C(c2ccccc2)c2ccccc2)C1.Cl.Cl	162 to 165 °C
COc1ccc(-c2ccoc2)cc1CN1C[C@@H]2CN(C(C)=O)CCN2[C@H](C(c2ccccc2)c2ccccc2)C1.Cl.Cl	173 to 177 °C

Read the next record carefully.
Entry CCS(=O)(=O)N1CCN2[C@H](CN(Cc3cc(-n4nnnc4C(F)(F)F)ccc3OC)C[C@H]2C(c2ccccc2)c2ccccc2)C1.Cl.Cl , melting point reported as 143 to 146 °C
